- testSummary: BSK_4H_Eotaxin3: BioMAP Diversity Plus: 4H Assay for Eotaxin 3 Biomarker Activity (AID 2283000)
- conditionContext: primary human endothelial cells (HUVEC); actives raise or lower the signal
The source made the active and inactive calls. The calls were made as follows: active = hit-call score of the fitted dose curve at least 0.9, where 1 is the maximum; inactive = score below 0.9.
// one of active, inactive, no free text

Here are 5 compounds together with their reported answers.
{"compound": "Oc1cccc(O)c1", "labelValue": "inactive"}
{"compound": "O=C(OCCOCCOC(=O)c1ccccc1)c1ccccc1", "labelValue": "inactive"}
{"compound": "CCCOc1sc(C(=O)N2CCC(c3cc(CN)ccc3F)CC2)c(C)c1Br", "labelValue": "active"}
{"compound": "CC(C)(C)c1cccc(C(C)(C)C)c1O", "labelValue": "inactive"}
{"compound": "CCCCCCCCC(=O)O", "labelValue": "inactive"}

Hey, what did the test say about "CCCCCCCC(=O)O" ?
inactive

Hey, what did the test say about "O=C(O)c1ccccc1C(c1ccc(O)cc1)c1ccc(O)cc1" ?
inactive

Hey, what did the test say about CCCCC(CC)COC(=O)CCCCC(=O)OCc1ccccc1 (centres undefined) ?
inactive

Hey, what did the test say about "NC(=O)N(O)[C@@H]1C=C[C@H](Oc2cccc(Oc3ccc(F)cc3)c2)C1" ?
inactive

Hey, what did the test say about "O=c1c(-c2ccc(O)cc2)coc2cc(O)ccc12" ?
inactive
